Please go through the items and note down their Percent Effect.
target: Shiga toxin 2 (Escherichia coli O157:H7) (UniProt P09385+P09386); test: E. coli 0.157:H7 Shiga Toxin SOP - stx2 screening assay; assay type: functional; parameters: scale not given: direction of the effect not stated beside the values; details: 30 µM
Please give a number only; it is taken to be in %.

Qu. Suppose we examine the compound Cc1nc(N(C)C)nc2c1COCC21CCN(CC2CC2)C1 (configuration not stated) ; what Percent Effect value has been reported?
Ans. -14.2

Qu. Suppose we examine the compound O=C(COCc1ccccc1)N1CCC(OCc2cccnc2)CC1 ; what Percent Effect value has been reported?
Ans. 11.5

Qu. Suppose we examine the compound c1ccc(OCCCN2CCN(c3ccc4nncn4n3)CC2)cc1 ; what Percent Effect value has been reported?
Ans. -81.9

Qu. Suppose we examine the compound CC(C)NC(=O)N1CCC2(COCc3cnc(-c4cccnc4)nc32)C1 (configuration not stated) ; what Percent Effect value has been reported?
Ans. 2.56

Qu. Suppose we examine the compound CCc1nnsc1C(=O)N1CCOC(c2nc(C)n[nH]2)C1 (configuration not stated) ; what Percent Effect value has been reported?
Ans. -18.3

Qu. Suppose we examine the compound Cc1cc(CNC2CCCN(c3cccnn3)C2)no1 (configuration not stated) ; what Percent Effect value has been reported?
Ans. -69.6

Qu. Suppose we examine the compound CC(=O)N1[C@H](CN(C)C)C[C@@H]2CN(C(=O)c3cccc(F)c3)CC[C@@H]21 ; what Percent Effect value has been reported?
Ans. -3.85

Qu. Suppose we examine the compound Cn1cc(C(=O)CC2CCCN2C(=O)c2n[nH]c3ccccc23)cn1 (configuration not stated) ; what Percent Effect value has been reported?
Ans. 0.49

Qu. Suppose we examine the compound O=C(CCc1cscn1)N1CCCC(c2ccn[nH]2)C1 (configuration not stated) ; what Percent Effect value has been reported?
Ans. 5.88

Qu. Suppose we examine the compound CCc1nnc(CNCC2CCCN2c2cccnn2)o1 (configuration not stated) ; what Percent Effect value has been reported?
Ans. -52.3

Qu. Suppose we examine the compound Cc1cc(-c2cnc(NCc3cccnc3)nc2C(C)C)on1 ; what Percent Effect value has been reported?
Ans. 10.2

Qu. Suppose we examine the compound O=C([C@H]1COC[C@H]2CN(C3CCCC3)C[C@H]21)N1CCCCO1 ; what Percent Effect value has been reported?
Ans. -2.98

Qu. Suppose we examine the compound Cc1ccoc1C(=O)N1CC[C@H]2OCC[C@@]2(COCc2ccncc2)C1 ; what Percent Effect value has been reported?
Ans. -14.8

Qu. Suppose we examine the compound O=C(CSc1ccc(F)c(F)c1)NS(=O)(=O)c1ccc2c(c1)OCCO2 ; what Percent Effect value has been reported?
Ans. 10.6

Qu. Suppose we examine the compound CN1C(=O)C2(CCN(CC3CC3)CC2)c2ccccc21 ; what Percent Effect value has been reported?
Ans. -0.91

Qu. Suppose we examine the compound CCn1cc(NC(=O)NCC2(N3CCOCC3)CCSC2)cn1 (configuration not stated) ; what Percent Effect value has been reported?
Ans. -20

Qu. Suppose we examine the compound CC(C)c1nc(C2CCCN(C(=O)CCCn3cncn3)C2)no1 (configuration not stated) ; what Percent Effect value has been reported?
Ans. 9.71

Qu. Suppose we examine the compound CC(NC1(CNC(=O)Cn2cccn2)CCOCC1)c1ccccc1 (configuration not stated) ; what Percent Effect value has been reported?
Ans. 10.6

Qu. Suppose we examine the compound CCOc1ncccc1C(=O)N1CCCCC1c1nccs1 (configuration not stated) ; what Percent Effect value has been reported?
Ans. 2.91

Qu. Suppose we examine the compound COc1ccc2c(O)c(NC(=O)NCC3CC3)cnc2c1 ; what Percent Effect value has been reported?
Ans. -13.7

Qu. Suppose we examine the compound CCOC(=O)CNC(=O)N1CCN(c2ncccn2)CC1 ; what Percent Effect value has been reported?
Ans. -21.7

Qu. Suppose we examine the compound O=C(c1ccco1)N1CCOCC2(C1)CN(c1ccccc1)C(=O)CO2 (configuration not stated) ; what Percent Effect value has been reported?
Ans. 2.61

Qu. Suppose we examine the compound Cc1oncc1C(=O)N1CCC2(C1)CN(c1cccnc1)C(=O)CN2C (configuration not stated) ; what Percent Effect value has been reported?
Ans. -13.7

Qu. Suppose we examine the compound CCOc1ccccc1C1CCCN1 (configuration not stated) ; what Percent Effect value has been reported?
Ans. -3.4

Qu. Suppose we examine the compound CCCc1cc(C(=O)N2CCCC2c2cccnc2)[nH]n1 (configuration not stated) ; what Percent Effect value has been reported?
Ans. 11.1

Qu. Suppose we examine the compound Cc1ncc(-c2ccnc(N3CCCCC3)n2)c(=O)[nH]1 ; what Percent Effect value has been reported?
Ans. -19.6

Qu. Suppose we examine the compound COCc1ccc(CNC(=O)C2=NN(c3ccccc3)C(=O)CN2)cc1 ; what Percent Effect value has been reported?
Ans. -18.1
